Origin of values: paper PMC11595589

# Assay info: Single-dose pharmacokinetics and bioavailability after oral gavage administration of EK-ECP
# Type: in vivo, male Sprague–Dawley rats
# Experimental setup: male, Sprague-Dawley, rat, in vivo; PO 1000 mg/kg EK-ECP, median (minimum-maximum)
Quantity measured: Tmax (min)

[
  {
    "Molecule": "Oc1cc(O)cc(Oc2c(O)cc(O)c3c2Oc2c(cc(O)c(-c4c(O)cc5c(c4O)Oc4c(Oc6cc(O)cc(O)c6)c(O)cc(O)c4O5)c2O)O3)c1 [8,8′-bieckol]",
    "Quantity measured": "Tmax",
    "Readout value": 30
  }
]

* * *

# Assay info: Single-dose pharmacokinetics and bioavailability after oral gavage administration of EK-ECP
# Assay type: in vivo, male Sprague–Dawley rats
# Experimental setup: male, Sprague-Dawley, rat, plasma, po, 100 mg/kg, PO 100 mg/kg EK-ECP, mean (CV); read-out: AUC(0–24h)

[
  {
    "Smiles notation": "Oc1cc(O)cc(Oc2c(O)cc(O)c3c2Oc2c(O)cc(Oc4c(O)cc(Oc5c(O)cc(O)c6c5Oc5c(O)cc(O)cc5O6)cc4O)cc2O3)c1",
    "AUC(0-t)": "27.2 ng·h/mL"
  }
]

* * *

# Assay info: Single-dose pharmacokinetics after IV bolus administration of EK-ECP
# Format: in vivo, male Sprague–Dawley rats
# Experimental setup: male, Sprague-Dawley, rat, in vivo, iv, 10 mg/kg, IV bolus 10 mg/kg EK-ECP, mean (CV); read-out: Vz

[
  {
    "Smiles notation": "Oc1cc(O)cc(Oc2c(O)cc(O)c3c2Oc2c(cc(O)c(-c4c(O)cc5c(c4O)Oc4c(Oc6cc(O)cc(O)c6)c(O)cc(O)c4O5)c2O)O3)c1",
    "Vd / L/kg": 2.2
  }
]

* * *

# Assay info: Single-dose pharmacokinetics and bioavailability after oral gavage administration of EK-ECP
# Format: in vivo, male Sprague–Dawley rats
# Experimental setup: male, Sprague-Dawley, rat, plasma; PO 1000 mg/kg EK-ECP, mean (CV)

[
  {
    "Smiles notation": "Oc1cc(O)cc(Oc2c(O)cc(O)c3c2Oc2c(O)cc(Oc4c(O)cc(Oc5c(O)cc(O)c6c5Oc5c(O)cc(O)cc5O6)cc4O)cc2O3)c1",
    "AUC(0-inf) (ng·h/mL)": 1230
  }
]

* * *

# key: entry, value: AUC(0-t)
# Assay info: Single-dose pharmacokinetics after IV bolus administration of EK-ECP
# Assay type: in vivo, male Sprague–Dawley rats
# Experimental setup: male, Sprague-Dawley, rat, plasma, iv, 10 mg/kg, IV bolus 10 mg/kg EK-ECP, mean (CV); read-out: AUC(0–24h)
Quantity measured: AUC(0-t) (ng·h/mL)

[
  {
    "Smiles notation": "Oc1cc(O)cc(Oc2c(O)cc(O)c3c2Oc2c(O)cc4oc5c(Oc6cc(O)cc(O)c6)c(O)cc(O)c5c4c2O3)c1",
    "Quantity measured": "AUC(0-t)",
    "Readout value": 9.03
  },
  {
    "Smiles notation": "Oc1cc(O)cc(Oc2c(O)cc(O)c3c2Oc2c(O)cc(Oc4c(O)cc(Oc5c(O)cc(O)c6c5Oc5c(O)cc(O)cc5O6)cc4O)cc2O3)c1",
    "Quantity measured": "AUC(0-t)",
    "Readout value": 5190
  }
]

* * *

# Assay info: Single-dose pharmacokinetics after IV bolus administration of EK-ECP
# Format: in vivo, male Sprague–Dawley rats
# Experimental setup: male, Sprague-Dawley, rat, in vivo, iv, 10 mg/kg, IV bolus 10 mg/kg EK-ECP, mean (CV); read-out: AUC(0–24h)

[
  {
    "Smiles notation": "Oc1cc(O)cc(Oc2c(O)cc(O)c3c2Oc2c(cc(O)c(-c4c(O)cc5c(c4O)Oc4c(Oc6cc(O)cc(O)c6)c(O)cc(O)c4O5)c2O)O3)c1",
    "AUC(0-t) / ng·h/mL": 6540
  }
]

* * *

# Assay info: Single-dose pharmacokinetics and bioavailability after oral gavage administration of EK-ECP
# Assay type: in vivo, male Sprague–Dawley rats
# Experimental setup: male, Sprague-Dawley, rat, in vivo, po, 100 mg/kg, PO 100 mg/kg EK-ECP, mean (CV); read-out: T1/2 (terminal half-life) (converted)
Quantity measured: half-life (h)

[
  {
    "Compound": "Oc1cc(O)cc(Oc2c(O)cc(O)c3c2Oc2c(cc(O)c(-c4c(O)cc5c(c4O)Oc4c(Oc6cc(O)cc(O)c6)c(O)cc(O)c4O5)c2O)O3)c1 [8,8′-bieckol]",
    "Readout value": 2.95
  }
]

* * *

# Assay info: Single-dose pharmacokinetics and bioavailability after oral gavage administration of EK-ECP
# Format: in vivo, male Sprague–Dawley rats
# Experimental setup: male, Sprague-Dawley, rat, plasma, po, 100 mg/kg, PO 100 mg/kg EK-ECP, mean (CV); ln(2)·MRTlast; read-out: Effective T1/2 (converted)

[
  {
    "Smiles notation": "Oc1cc(O)cc(Oc2c(O)cc(O)c3c2Oc2c(O)cc(Oc4c(O)cc(Oc5c(O)cc(O)c6c5Oc5c(O)cc(O)cc5O6)cc4O)cc2O3)c1",
    "half-life": "2.36 h"
  }
]

* * *

# Assay info: Single-dose pharmacokinetics and bioavailability after oral gavage administration of EK-ECP
# Type: in vivo, male Sprague–Dawley rats
# Experimental setup: male, Sprague-Dawley, rat, in vivo; PO 100 mg/kg EK-ECP (Group 3), mean (CV)
Quantity measured: Cmax (ng/mL)

[
  {
    "Smiles notation": "Oc1cc(O)cc(Oc2c(O)cc(O)c3c2Oc2c(cc(O)c(-c4c(O)cc5c(c4O)Oc4c(Oc6cc(O)cc(O)c6)c(O)cc(O)c4O5)c2O)O3)c1",
    "Readout value": 11.2
  }
]

* * *

# Assay info: Single-dose pharmacokinetics after IV bolus administration of EK-ECP
# Format: in vivo, male Sprague–Dawley rats
# Experimental setup: male, Sprague-Dawley, rat, plasma, iv, 10 mg/kg, IV bolus 10 mg/kg EK-ECP, mean (CV); read-out: AUCTlast

[
  {
    "Compound": "Oc1cc(O)cc(Oc2c(O)cc(O)c3c2Oc2c(O)cc(Oc4c(O)cc(Oc5c(O)cc(O)c6c5Oc5c(O)cc(O)cc5O6)cc4O)cc2O3)c1 [dieckol]",
    "AUC(0-t), ng·h/mL": 5290
  },
  {
    "Compound": "Oc1cc(O)cc(Oc2c(O)cc(O)c3c2Oc2c(O)cc4oc5c(Oc6cc(O)cc(O)c6)c(O)cc(O)c5c4c2O3)c1 [PFF-A, phlorofucofuroeckol-A]",
    "AUC(0-t), ng·h/mL": 7.81
  }
]

* * *

# Assay info: Single-dose pharmacokinetics and bioavailability after oral gavage administration of EK-ECP
# Type: in vivo, male Sprague–Dawley rats
# Experimental setup: male, Sprague-Dawley, rat, plasma; PO 1000 mg/kg EK-ECP (Group 4), mean (CV); PFF-A N = 1

[
  {
    "Smiles notation": "Oc1cc(O)cc(Oc2c(O)cc(O)c3c2Oc2c(O)cc4oc5c(Oc6cc(O)cc(O)c6)c(O)cc(O)c5c4c2O3)c1",
    "Cmax (ng/mL)": 1.58
  },
  {
    "Smiles notation": "Oc1cc(O)cc(Oc2c(O)cc(O)c3c2Oc2c(O)cc(Oc4c(O)cc(Oc5c(O)cc(O)c6c5Oc5c(O)cc(O)cc5O6)cc4O)cc2O3)c1",
    "Cmax (ng/mL)": 274
  }
]

* * *

# Assay info: Single-dose pharmacokinetics and bioavailability after oral gavage administration of EK-ECP
# Assay type: in vivo, male Sprague–Dawley rats
# Experimental setup: male, Sprague-Dawley, rat, in vivo; 100 and 1000 mg/kg oral dose of EK-ECP versus IV 10 mg/kg, dose-corrected; read-out: Bioavailability following oral gavage administration

[
  {
    "Smiles notation": "Oc1cc(O)cc(Oc2c(O)cc(O)c3c2Oc2c(cc(O)c(-c4c(O)cc5c(c4O)Oc4c(Oc6cc(O)cc(O)c6)c(O)cc(O)c4O5)c2O)O3)c1",
    "bioavailability": "0.069 to 0.5%"
  }
]

* * *

# Assay info: Single-dose pharmacokinetics and bioavailability after oral gavage administration of EK-ECP
# Format: in vivo, male Sprague–Dawley rats
# Experimental setup: male, Sprague-Dawley, rat, in vivo, po, 1000 mg/kg, PO 1000 mg/kg EK-ECP, mean (CV); read-out: AUC(0–24h)
Quantity measured: AUC(0-t)

[
  {
    "Smiles notation": "Oc1cc(O)cc(Oc2c(O)cc(O)c3c2Oc2c(cc(O)c(-c4c(O)cc5c(c4O)Oc4c(Oc6cc(O)cc(O)c6)c(O)cc(O)c4O5)c2O)O3)c1",
    "Readout value": "3050 ng·h/mL"
  }
]

* * *

# Assay info: Single-dose pharmacokinetics and bioavailability after oral gavage administration of EK-ECP
# Type: in vivo, male Sprague–Dawley rats
# Experimental setup: male, Sprague-Dawley, rat, plasma, po, 100 mg/kg, PO 100 mg/kg EK-ECP, mean (CV); read-out: T1/2 (terminal half-life) (converted)
Quantity measured: half-life (min)

[
  {
    "Compound": "Oc1cc(O)cc(Oc2c(O)cc(O)c3c2Oc2c(O)cc(Oc4c(O)cc(Oc5c(O)cc(O)c6c5Oc5c(O)cc(O)cc5O6)cc4O)cc2O3)c1 [dieckol]",
    "Unit abbreviation": "min",
    "Readout value": 166
  }
]
